Data credit: paper PMC8056384

- assay target: hGALK1 (Homo sapiens, UniProt P51570, E253A/K252A)
- Construct: A hGALK1 construct, encoding full-length protein harboring the surface entropy[41] mutations K252A:E253A; His6 (N); made in house; host or cells: E. coli BL21(DE3)
- Sequence (P51570 whole entry K252A/E253A): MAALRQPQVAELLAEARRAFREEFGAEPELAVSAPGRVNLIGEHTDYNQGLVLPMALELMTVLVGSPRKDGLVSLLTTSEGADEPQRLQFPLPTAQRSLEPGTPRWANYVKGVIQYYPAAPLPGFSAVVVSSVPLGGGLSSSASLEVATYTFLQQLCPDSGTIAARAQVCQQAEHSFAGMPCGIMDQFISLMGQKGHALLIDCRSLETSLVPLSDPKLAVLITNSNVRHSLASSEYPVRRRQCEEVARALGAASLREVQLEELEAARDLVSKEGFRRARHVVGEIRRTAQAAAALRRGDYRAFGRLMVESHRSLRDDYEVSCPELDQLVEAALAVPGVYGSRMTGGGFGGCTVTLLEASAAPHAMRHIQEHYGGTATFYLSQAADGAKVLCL
- experiment: Kinase-Glo luminescent hGALK1 activity assay
- Type: biochemical
- condition summary: 35 μM ATP, 0–250 μM galactose; best-fit model in GraphPad Prism
readout name: mode of inhibition with respect to galactose

[[record]]
compound = "O=C(CNc1cnc2cc(Cl)c(Cl)cc2n1)NC1CC1 [compound 11]"
assay_target = "hGALK1 (Homo sapiens, UniProt P51570, E253A/K252A)"
reported_measurement = "noncompetitive"

[[record]]
compound = "COCCNC(=O)CNc1cnc2cc(Cl)c(Cl)cc2n1 [compound 12]"
assay_target = "hGALK1 (Homo sapiens, UniProt P51570, E253A/K252A)"
reported_measurement = "noncompetitive"

[[record]]
compound = "COc1ccc(Cl)cc1C(=O)NC1CCN(c2ncccn2)CC1 [compound 13]"
assay_target = "hGALK1 (Homo sapiens, UniProt P51570, E253A/K252A)"
reported_measurement = "mixed"

[[record]]
compound = "O=C(Cc1ccc(Cl)cc1)Nc1ncccn1 [fragment 3]"
assay_target = "hGALK1 (Homo sapiens, UniProt P51570, E253A/K252A)"
reported_measurement = "mixed"


###

- assay target: hGALK1 (Homo sapiens, UniProt P51570, E253A/K252A)
- Construct: A hGALK1 construct, encoding full-length protein harboring the surface entropy[41] mutations K252A:E253A; His6 (N); made in house; host or cells: E. coli BL21(DE3)
- experiment: Kinase-Glo luminescent hGALK1 activity assay
- Type: biochemical
- condition summary: 5 mM fragment
- Experimental: hGALK1 activity in vitro was determined using the Kinase-Glo luminescent kinase assay (Promega), according to the manufacturer’s protocol. […] Following a 1-h RT incubation, 10 μL of Kinase-Glo Plus detection reagent was added (final assay volume: 20 μL/well), and after a further 20 minutes RT incubation, luminescence was detected using a Pherastar FSX plate reader (BMG Labtech) containing a luminescence optics module. […]
readout name: change in hGALK1 activity, strictly standardized mean difference (SSMD)

[[record]]
smiles = "CCOC(=O)C1CCN(c2cnccn2)CC1"
reported_measurement = "< 0.5"

[[record]]
smiles = "O=C(NCCN1CCCC1=O)Nc1ccccc1"
reported_measurement = "< 0.5"

[[record]]
smiles = "O=C(OCc1ccc(Cl)cc1)c1cccnc1"
reported_measurement = "< 0.5"

[[record]]
smiles = "O=C(Cc1ccc(Cl)cc1)Nc1ncccn1"
reported_measurement = 2.79

[[record]]
smiles = "Cc1ccc(C)c(OC(=O)c2ccncc2)c1"
reported_measurement = "< 0.5"

[[record]]
smiles = "COc1ccc(Cl)cc1C(=O)NCC(C)C"
reported_measurement = 0.80


Data request: GET /values?readout=change in hGALK1 activity, strictly standardized mean difference (SSMD)&item= `CS(=O)(=O)c1nccn1Cc1cscn1`
Data returned: < 0.5

###

- assay target: hGALK1 (Homo sapiens, UniProt P51570, E253A/K252A)
- Construct: A hGALK1 construct, encoding full-length protein harboring the surface entropy[41] mutations K252A:E253A; His6 (N); made in house; host or cells: E. coli BL21(DE3)
- experiment: Kinase-Glo luminescent hGALK1 activity assay
- Format: biochemical
- condition summary: range over Kinase-Glo and Amplex Red assays, two biological replicates; read-out: IC50 values, range
pIC50: −log10 of the molar value.
# Lookup of reported pIC50 keyed by entry

[[record]]
molecule = "COCCNC(=O)CNc1cnc2cc(Cl)c(Cl)cc2n1 [compound 12]"
assay_target = "hGALK1 (Homo sapiens, UniProt P51570, E253A/K252A)"
reported_measurement = "3.70 to 4.60"


Next:
Data request: Data request, read-out pIC50, for O=C(CNc1cnc2cc(Cl)c(Cl)cc2n1)NC1CC1 [compound 11]
Data returned: 3.68 to 4.51
